- assay.method.text: Stability test (high temperature, high humidity and light tests)
- Format: physicochemical
- study.conditions: high temperature, high humidity or light conditions for 10 days
measurement.label: stability (in words)

Recorded stability (in words), per entry:
COC(=O)C1=C(CN2CCN3C(=O)N(c4ccc(CCC(=O)O)cc4F)C[C@@H]3C2)N=C(c2nccs2)N[C@H]1c1ccc(F)cc1Cl.O=S(=O)(O)O [Sulfate crystal form B of the compound having Formula (Ia)]
very good
COC(=O)C1=C(CN2CCN3C(=O)N(c4ccc(CCC(=O)O)cc4F)C[C@@H]3C2)N=C(c2nccs2)N[C@H]1c1ccc(F)cc1Cl.O=P(O)(O)O [Phosphate crystal form A of the compound having Formula (Ia)]
very good
COC(=O)C1=C(CN2CCN3C(=O)N(c4ccc(CCC(=O)O)cc4F)C[C@@H]3C2)N=C(c2nccs2)N[C@H]1c1ccc(F)cc1Cl.Cl
very good
Br.COC(=O)C1=C(CN2CCN3C(=O)N(c4ccc(CCC(=O)O)cc4F)C[C@@H]3C2)N=C(c2nccs2)N[C@H]1c1ccc(F)cc1Cl
very good

Alright, here's another molecule for you.
Using the record for "COC(=O)C1=C(CN2CCN3C(=O)N(c4ccc(CCC(=O)O)cc4F)C[C@@H]3C2)NC(c2nccs2)=N[C@H]1c1ccc(F)cc1Cl.N=C(N)NCCC[C@H](N)C(=O)O" , report its stability (in words). very good

----------
- assay.method.text: Stability test (high temperature, high humidity and light tests)
- Assay type: physicochemical
- study.conditions: High temperature (60° C.), 5 days
In this section we review reported Purity (%) values for a set of compounds.
# output: bare number, implied unit %

Recorded Purity (%), per entry:
COC(=O)C1=C(CN2CCN3C(=O)N(c4ccc(CCC(=O)O)cc4F)C[C@@H]3C2)N=C(c2nccs2)N[C@H]1c1ccc(F)cc1Cl.CS(=O)(=O)O
99.15
COC(=O)C1=C(CN2CCN3C(=O)N(c4ccc(CCC(=O)O)cc4F)C[C@@H]3C2)NC(c2nccs2)=N[C@H]1c1ccc(F)cc1Cl
95.40
CN(C)C=O.COC(=O)C1=C(CN2CCN3C(=O)N(c4ccc(CCC(=O)O)cc4F)C[C@@H]3C2)NC(c2nccs2)=N[C@H]1c1ccc(F)cc1Cl
98.48
COC(=O)C1=C(CN2CCN3C(=O)N(c4ccc(CCC(=O)O)cc4F)C[C@@H]3C2)N=C(c2nccs2)N[C@H]1c1ccc(F)cc1Cl.O=S(=O)(O)O [Sulfate crystal form B of the compound having Formula (Ia)]
98.94

Alright, here's another compound for you.
Using the record for COC(=O)C1=C(CN2CCN3C(=O)N(c4ccc(CCC(=O)O)cc4F)C[C@@H]3C2)N=C(c2nccs2)N[C@H]1c1ccc(F)cc1Cl.O=P(O)(O)O [Phosphate crystal form C of the compound having Formula (Ia)] , report its Purity (%). 87.42

----------
- assay.method.text: Stability test (high temperature, high humidity and light tests)
- Format: physicochemical
- study.conditions: Light (4500±500 lx, UV light≥0.7 w/m^2), 5 days
- Protocol: High temperature test: An appropriate amount of the test product was added into a flat weighing bottle and spread into a thin layer with thickness ≤5 mm. The bottle was placed at 60° C. or 40° C. for 10 days. Samples were taken at the 5th and 10th days to check the appearance, related substances and purity. High humidity test: An appropriate amount of the test product was added into a flat weighing bottle and spread into a thin layer with thickness 5 mm. […]
measurement.label: Purity (%)
# output: bare number, implied unit %

Using the record for "COC(=O)C1=C(CN2CCN3C(=O)N(c4ccc(CCC(=O)O)cc4F)C[C@@H]3C2)NC(c2nccs2)=N[C@H]1c1ccc(F)cc1Cl.N=C(N)NCCC[C@H](N)C(=O)O" , report its Purity (%). 99.10

Using the record for COC(=O)C1=C(CN2CCN3C(=O)N(c4ccc(CCC(=O)O)cc4F)C[C@@H]3C2)N=C(c2nccs2)N[C@H]1c1ccc(F)cc1Cl.O=P(O)(O)O [Phosphate crystal form A of the compound having Formula (Ia)] , report its Purity (%). 99.03

Using the record for COC(=O)C1=C(CN2CCN3C(=O)N(c4ccc(CCC(=O)O)cc4F)C[C@@H]3C2)N=C(c2nccs2)N[C@H]1c1ccc(F)cc1Cl.O=S(=O)(O)O [Sulfate crystal form B of the compound having Formula (Ia)] , report its Purity (%). 99.01

Using the record for COC(=O)C1=C(CN2CCN3C(=O)N(c4ccc(CCC(=O)O)cc4F)C[C@@H]3C2)N=C(c2nccs2)N[C@H]1c1ccc(F)cc1Cl.O=S(=O)(O)O [Sulfate crystal form A of the compound having Formula (Ia)] , report its Purity (%). 99.17

Using the record for "COC(=O)C1=C(CN2CCN3C(=O)N(c4ccc(CCC(=O)O)cc4F)C[C@@H]3C2)NC(c2nccs2)=N[C@H]1c1ccc(F)cc1Cl" , report its Purity (%). 98.66
